Cited source: ChEMBL document CHEMBL5104211

The reader will find reported IC50 values listed item by item below.
system: SW480; assay: Anticancer activity against human SW480 cells assessed as inhibition of cell proliferation by MTT assay; assay type: functional, cell-based

- given_smiles: "C[C@H](CCC(=O)OCc1cccc(O)c1)[C@H]1CC[C@H]2[C@@H]3[C@@H](O)C[C@@H]4C[C@@H](O)CC[C@]4(C)[C@H]3CC[C@]12C"
  comparator: "="
  IC50 / µM: 99
- given_smiles: "C[C@H](CCC(=O)NCc1ccccc1O)[C@H]1CC[C@H]2[C@@H]3[C@H](O)C[C@@H]4C[C@H](O)CC[C@]4(C)[C@H]3C[C@H](O)[C@]12C"
  comparator: "="
  IC50 / µM: 35.9
- given_smiles: "CC(=O)Oc1ccc(OC(=O)CC[C@@H](C)[C@H]2CC[C@H]3[C@@H]4[C@H](O)C[C@@H]5C[C@H](O)CC[C@]5(C)[C@H]4CC[C@]23C)cc1"
  comparator: "="
  IC50 / µM: 100
- given_smiles: "C[C@H](CCC(=O)O)[C@H]1CC[C@H]2[C@@H]3[C@H](O)C[C@@H]4C[C@H](O)CC[C@]4(C)[C@H]3CC[C@]12C"
  comparator: ">"
  IC50 / µM: 200
- given_smiles: "COC(=O)[C@H](CCSC)NC(=O)CC[C@@H](C)[C@H]1CC[C@H]2[C@@H]3[C@H](O)C[C@@H]4C[C@H](O)CC[C@]4(C)[C@H]3CC[C@]12C"
  comparator: "="
  IC50 / µM: 23.6

###

system: RKO; assay: Anticancer activity against human RKO cells assessed as inhibition of cell proliferation by MTT assay; type: functional, cell-based
parameter_measured: IC50 (µM)

- molecule: "COc1cc(COC(=O)CC[C@@H](C)[C@H]2CC[C@H]3[C@@H]4[C@H](O)C[C@@H]5C[C@H](O)CC[C@]5(C)[C@H]4C[C@H](O)[C@]23C)cc(OC)c1"
  value_unit: "µM"
  comparator: "="
  measurement: 31.7
- molecule: "COC(=O)[C@H](CCSC)NC(=O)CC[C@@H](C)[C@H]1CC[C@H]2[C@@H]3[C@H](O)C[C@@H]4C[C@H](O)CC[C@]4(C)[C@H]3C[C@H](O)[C@]12C"
  value_unit: "µM"
  comparator: "="
  measurement: 97.3
- molecule: "C[C@H](CCC(=O)OCc1cccc(O)c1)[C@H]1CC[C@H]2[C@@H]3[C@H](O)C[C@@H]4C[C@H](O)CC[C@]4(C)[C@H]3C[C@H](O)[C@]12C"
  value_unit: "µM"
  comparator: "="
  measurement: 47.6
- molecule: "C[C@H](CCC(=O)O)[C@H]1CC[C@H]2[C@@H]3[C@H](O)C[C@@H]4C[C@H](O)CC[C@]4(C)[C@H]3C[C@H](O)[C@]12C [CHOLIC ACID]"
  value_unit: "µM"
  comparator: ">"
  measurement: 200
- molecule: "C[C@H](CCC(=O)O)[C@H]1CC[C@H]2[C@@H]3[C@@H](O)C[C@@H]4C[C@H](O)CC[C@]4(C)[C@H]3CC[C@]12C [URSODIOL]"
  value_unit: "µM"
  comparator: ">"
  measurement: 200
- molecule: "C[C@H](CCC(=O)OCc1cccc(O)c1)[C@H]1CC[C@H]2[C@@H]3[C@@H](O)C[C@@H]4C[C@@H](O)CC[C@]4(C)[C@H]3CC[C@]12C"
  value_unit: "µM"
  comparator: "="
  measurement: 68.8
- molecule: "CC(=O)Nc1ccc(OC(=O)CC[C@@H](C)[C@H]2CC[C@H]3[C@@H]4[C@H](O)C[C@@H]5C[C@H](O)CC[C@]5(C)[C@H]4C[C@H](O)[C@]23C)cc1"
  value_unit: "µM"
  comparator: "="
  measurement: 36.3
- molecule: "C[C@H](CCC(=O)OCc1ccc([N+](=O)[O-])cc1)[C@H]1CC[C@H]2[C@@H]3[C@H](O)C[C@@H]4C[C@H](O)CC[C@]4(C)[C@H]3CC[C@]12C"
  value_unit: "µM"
  comparator: "="
  measurement: 43.2
- molecule: "CC(=O)Oc1ccc(OC(=O)CC[C@@H](C)[C@H]2CC[C@H]3[C@@H]4[C@@H](O)C[C@@H]5C[C@@H](O)CC[C@]5(C)[C@H]4CC[C@]23C)cc1"
  value_unit: "µM"
  comparator: "="
  measurement: 187
- molecule: "C[C@H](CCC(=O)NCc1ccccc1O)[C@H]1CC[C@H]2[C@@H]3[C@H](O)C[C@@H]4C[C@H](O)CC[C@]4(C)[C@H]3C[C@H](O)[C@]12C"
  value_unit: "µM"
  comparator: "="
  measurement: 48.5
- molecule: "C[C@H](CCC(=O)OCc1cccc(O)c1)[C@H]1CC[C@H]2[C@@H]3[C@H](O)C[C@@H]4C[C@H](O)CC[C@]4(C)[C@H]3CC[C@]12C"
  value_unit: "µM"
  comparator: "="
  measurement: 128
- molecule: "C[C@H](CCC(=O)OCc1cc(O)cc(O)c1)[C@H]1CC[C@H]2[C@@H]3[C@H](O)C[C@@H]4C[C@H](O)CC[C@]4(C)[C@H]3CC[C@]12C"
  value_unit: "µM"
  comparator: "="
  measurement: 76.9
- molecule: "C[C@H](CCC(=O)OCc1cccc(O)c1)[C@H]1CC[C@H]2[C@@H]3CC[C@@H]4C[C@H](O)CC[C@]4(C)[C@H]3CC[C@]12C"
  value_unit: "µM"
  comparator: "="
  measurement: 150
- molecule: "COc1cc(COC(=O)CC[C@@H](C)[C@H]2CC[C@H]3[C@@H]4[C@H](O)C[C@@H]5C[C@H](O)CC[C@]5(C)[C@H]4CC[C@]23C)cc(OC)c1"
  value_unit: "µM"
  comparator: "="
  measurement: 45.4
- molecule: "Cc1ccc(COC(=O)CC[C@@H](C)[C@H]2CC[C@H]3[C@@H]4[C@H](O)C[C@@H]5C[C@H](O)CC[C@]5(C)[C@H]4C[C@H](O)[C@]23C)cc1"
  value_unit: "µM"
  comparator: "="
  measurement: 27.6
- molecule: "O=c1[nH]cc(F)c(=O)[nH]1 [FLUOROURACIL]"
  value_unit: "µM"
  comparator: "="
  measurement: 12.7
- molecule: "Cc1ccc(COC(=O)CC[C@@H](C)[C@H]2CC[C@H]3[C@@H]4[C@H](O)C[C@@H]5C[C@H](O)CC[C@]5(C)[C@H]4CC[C@]23C)cc1"
  value_unit: "µM"
  comparator: "="
  measurement: 42.1
- molecule: "C[C@H](CCC(=O)O)[C@H]1CC[C@H]2[C@@H]3CC[C@@H]4C[C@H](O)CC[C@]4(C)[C@H]3CC[C@]12C [LITHOCHOLIC ACID]"
  value_unit: "µM"
  comparator: ">"
  measurement: 200
- molecule: "COC(=O)c1ccc(COC(=O)CC[C@@H](C)[C@H]2CC[C@H]3[C@@H]4[C@H](O)C[C@@H]5C[C@H](O)CC[C@]5(C)[C@H]4C[C@H](O)[C@]23C)cc1"
  value_unit: "µM"
  comparator: "="
  measurement: 41.2
- molecule: "COC(=O)[C@H](CCSC)NC(=O)CC[C@@H](C)[C@H]1CC[C@H]2[C@@H]3[C@H](O)C[C@@H]4C[C@H](O)CC[C@]4(C)[C@H]3CC[C@]12C"
  value_unit: "µM"
  comparator: "="
  measurement: 27.3
